assay_protocol: PK study: plasma and brain levels in mice
Type: in vivo
measurement_conditions: mouse, plasma; male C57BL/6 mice, 50 mg/kg oral, 4 hr post dosing; read-out: Plasma (ng/ml) 4 hr
measurement_type: concentration at 4 h (ng/mL)

A. Cn1c(Nc2nc3ccccc3o2)nc2cc(C(=O)NCCOCCO)ccc21
B. COCCNC(=O)c1ccc2c(c1)nc(Nc1nc3ccc(OCCOC)cc3o1)n2C
Consider entries A and B . Which has the numerically lower concentration at 4 h? Return value: the label identifying the chosen record.
A
(A: 72 ng/mL, B: 281 ng/mL)

====

assay_protocol: Kinetic solubility
Format: physicochemical
measurement_conditions: Dulbecco's phosphate buffer saline (DPBS), aqueous buffer, kinetic from dmso stock, DPBS pH 7.4, 25° C., 200 μM test compound
measurement_type: solubility at 16 h (µM)

Example results:
[
  {
    "compound": "Cn1c(Nc2nc3ccccc3o2)nc2cc(C(=O)NCCOCCO)ccc21 [Example 17]",
    "solubility at 16 h (µM)": 11.6
  },
  {
    "compound": "COCCNC(=O)c1ccc2c(c1)nc(Nc1nc3cccnc3o1)n2C [Example 109]",
    "solubility at 16 h (µM)": 7.4
  }
]

P. Cn1c(Nc2nc3ccc(OCC(F)(F)F)cc3o2)nc2cc(C(=O)NCCO)ccc21 [Example 100]
Q. Cn1c(Nc2nc3ccc(N4CCOCC4)cc3o2)nc2cc(C(=O)NCCOCCO)ccc21 [Example 136]
R. Cn1c(Nc2nc3ccccc3o2)nc2cc(C(=O)NCCOCC(=O)O)ccc21 [Example 29]
Returns the items ordered by solubility at 16 h, from maximum to minimum. // respond by listing labels in the order requested
R, Q, P
(R: 19.3 µM, Q: 10.6 µM, P: 5.3 µM)

====

Test system: Human Heme Oxygenase-1 (HMOX-1)
assay_protocol: ELISA assay to measure human heme oxygenase-1 (HMOX-1) in HepG2 lysate
Assay type: cell-based
measurement_conditions: human HMOX1 protein level in HepG2 lysate; * = average of 2 or more EC50 determinations; NA = Not Active; read-out: EC50
measurement_type: EC50 (nM)

// worked examples, EC50 included
[
  {
    "compound": "COCCNC(=O)c1ccc2c(c1)nc(Nc1nc3cc(Cl)ccc3[nH]1)n2C",
    "tested_target": "Human Heme Oxygenase-1 (HMOX-1)",
    "unit_abbrev": "nM",
    "data_value": 1800
  },
  {
    "compound": "CC1CCc2nc(Nc3nc4cc(C(=O)NOCCO)ccc4n3C)sc2C1 (centres unmarked)",
    "tested_target": "Human Heme Oxygenase-1 (HMOX-1)",
    "unit_abbrev": "nM",
    "data_value": 1400
  },
  {
    "compound": "COCCONC(=O)c1ccc2c(c1)nc(Nc1nc3ccc(OC(F)(F)F)cc3o1)n2C",
    "tested_target": "Human Heme Oxygenase-1 (HMOX-1)",
    "unit_abbrev": "nM",
    "data_value": 500
  },
  {
    "compound": "COc1ccc2nc(Nc3nc4cc(C(=O)NCCO)ccc4n3C)oc2c1",
    "tested_target": "Human Heme Oxygenase-1 (HMOX-1)",
    "unit_abbrev": "nM",
    "data_value": 1400
  },
  {
    "compound": "COCCNC(=O)c1ccc2c(c1)nc(Nc1nc3ccc(OCCOC)cc3o1)n2C",
    "tested_target": "Human Heme Oxygenase-1 (HMOX-1)",
    "unit_abbrev": "nM",
    "data_value": 1400
  }
]

a. Cn1c(Nc2nc3cc(F)c(C(F)(F)F)cc3o2)nc2cc(C(=O)O)ccc21
b. Cn1c(Nc2nc3ccc(C(F)(F)F)cc3o2)nc2cc(C(=O)O)ccc21
c. Cn1c(Nc2nc3ccc(C(F)(F)F)cc3o2)nc2cc(C(=O)NCCOCC(C)(C)O)ccc21
Rank the 3 compounds: largest EC50 first, smallest last. A complete answer lists every label in the requested sequence.
a, c, b

====

Test system: Human Heme Oxygenase-1 (HMOX-1)
assay_protocol: ELISA assay to measure human heme oxygenase-1 (HMOX-1) in HepG2 lysate
Format: cell-based
measurement_conditions: human HMOX1 protein level in HepG2 lysate; * = average of 2 or more EC50 determinations; NA = Not Active; read-out: EC50
measurement_type: EC50 (µM)

a. Cn1c(Nc2nc3ccc(OC(F)(F)F)cc3o2)nc2cc(C(=O)NC3COC3)ccc21
b. Cn1c(Nc2nc3cc(Cl)ccc3[nH]2)nc2cc(C(=O)O)ccc21
c. Cn1c(Nc2nc3cc(F)c(C(F)(F)F)cc3o2)nc2cc(C(=O)NOCCO)ccc21
Rank the items in ascending order with respect to EC50. Write the labels, ordered according to the request.
c, a, b
(c: 0.74 µM, a: 1.4 µM, b: 2.4 µM)

1. CN(C)CCONC(=O)c1ccc2c(c1)nc(Nc1nc3ccc(C(F)(F)F)cc3o1)n2C
2. COCCNC(=O)c1ccc2c(c1)nc(Nc1nc3ccc(OC(F)(F)F)cc3o1)n2CC1CCOC1 (stereo not shown)
API: POST /compare with 1 and 2 ; response names the item with higher EC50. Bench note: the answer is the label of the chosen record.
2
(2: 1.5 µM, 1: 0.4 µM)

====

assay_protocol: Kinetic solubility
Format: physicochemical
measurement_conditions: Dulbecco's phosphate buffer saline (DPBS), aqueous buffer, kinetic from dmso stock, DPBS pH 7.4, 25° C., 200 μM test compound
Experimental: Example 144. Kinetic Solubility 10 μL of 10 mM DMSO stock solution were aliquotted to 490 μL of DMSO solution and separately 490 μL of Dulbecco's phosphate buffer saline, DPBS, pH 7.4 solution in 1.2 mL 96-well plates in duplicate. Final concentration was 200 μM of the test compound. Samples were incubated at 25° C. with shaking at 200 rpm for 16 h. […] Kinetic solubility was measured using the following equation: […]
measurement_type: solubility at 16 h (µM)

1. Cn1c(Nc2nc3ccc(C(F)(F)F)cc3o2)nc2cc(C(=O)NCC(O)CO)ccc21 (stereo not shown)
2. Cn1c(Nc2nc3ccc(C(F)(F)F)cc3o2)nc2cc(C(=O)NCCO)ccc21
Among 1 and 2 , which shows a numerically higher solubility at 16 h result? Use the label to indicate which entry you chose.
1
(1: 2.1 µM, 2: 0.9 µM)

P. CN(C)CC(=O)NCCNC(=O)c1ccc2c(c1)nc(Nc1nc3ccc(C(F)(F)F)cc3o1)n2C
Q. Cn1c(Nc2nc3ccccc3o2)nc2cc(C(=O)NCCOCC(C)(C)O)ccc21
Param metric = solubility at 16 h; output whichever of P , Q has the minimum value. Please identify the chosen entry by its label.
P
(P: 0.5 µM, Q: 10.6 µM)

P. COCCOc1ccc2nc(Nc3nc4cc(C(=O)NCCO)ccc4n3C)oc2c1
Q. CC(O)COCCNC(=O)c1ccc2c(c1)nc(Nc1nc3ccccc3o1)n2C (stereo not shown)
Consider entries P and Q . Which has the numerically lower solubility at 16 h? Select an item and report its label.
Q

====

Entries and their measured solubility at 16 h follow.
assay_protocol: Kinetic solubility
Type: physicochemical
measurement_conditions: Dulbecco's phosphate buffer saline (DPBS), aqueous buffer, kinetic from dmso stock, DPBS pH 7.4, 25° C., 200 μM test compound

Recorded solubility at 16 h, per entry:
[
  {
    "compound": "CC(O)CNC(=O)c1ccc2c(c1)nc(Nc1nc3ccc(C(F)(F)F)cc3o1)n2C (stereo not shown)",
    "data_value": "< 2 µM"
  },
  {
    "compound": "Cn1c(Nc2nc3ccc(OCCO)cc3o2)nc2cc(C(=O)NCCO)ccc21",
    "data_value": "> 20 µM"
  },
  {
    "compound": "Cn1c(Nc2nc3ccccc3o2)nc2cc(C(=O)C(F)(F)F)ccc21",
    "data_value": "< 2 µM"
  }
]

Now for a further compound.
Could you tell me which solubility at 16 h is on file for Cn1c(Nc2nc3ccc(OC(F)(F)F)cc3o2)nc2cc(C(=O)NCC3(O)COC3)ccc21 ?
< 2 µM

====

tested_target: hERG channel (Homo sapiens)
Sequence (Q12809 whole entry): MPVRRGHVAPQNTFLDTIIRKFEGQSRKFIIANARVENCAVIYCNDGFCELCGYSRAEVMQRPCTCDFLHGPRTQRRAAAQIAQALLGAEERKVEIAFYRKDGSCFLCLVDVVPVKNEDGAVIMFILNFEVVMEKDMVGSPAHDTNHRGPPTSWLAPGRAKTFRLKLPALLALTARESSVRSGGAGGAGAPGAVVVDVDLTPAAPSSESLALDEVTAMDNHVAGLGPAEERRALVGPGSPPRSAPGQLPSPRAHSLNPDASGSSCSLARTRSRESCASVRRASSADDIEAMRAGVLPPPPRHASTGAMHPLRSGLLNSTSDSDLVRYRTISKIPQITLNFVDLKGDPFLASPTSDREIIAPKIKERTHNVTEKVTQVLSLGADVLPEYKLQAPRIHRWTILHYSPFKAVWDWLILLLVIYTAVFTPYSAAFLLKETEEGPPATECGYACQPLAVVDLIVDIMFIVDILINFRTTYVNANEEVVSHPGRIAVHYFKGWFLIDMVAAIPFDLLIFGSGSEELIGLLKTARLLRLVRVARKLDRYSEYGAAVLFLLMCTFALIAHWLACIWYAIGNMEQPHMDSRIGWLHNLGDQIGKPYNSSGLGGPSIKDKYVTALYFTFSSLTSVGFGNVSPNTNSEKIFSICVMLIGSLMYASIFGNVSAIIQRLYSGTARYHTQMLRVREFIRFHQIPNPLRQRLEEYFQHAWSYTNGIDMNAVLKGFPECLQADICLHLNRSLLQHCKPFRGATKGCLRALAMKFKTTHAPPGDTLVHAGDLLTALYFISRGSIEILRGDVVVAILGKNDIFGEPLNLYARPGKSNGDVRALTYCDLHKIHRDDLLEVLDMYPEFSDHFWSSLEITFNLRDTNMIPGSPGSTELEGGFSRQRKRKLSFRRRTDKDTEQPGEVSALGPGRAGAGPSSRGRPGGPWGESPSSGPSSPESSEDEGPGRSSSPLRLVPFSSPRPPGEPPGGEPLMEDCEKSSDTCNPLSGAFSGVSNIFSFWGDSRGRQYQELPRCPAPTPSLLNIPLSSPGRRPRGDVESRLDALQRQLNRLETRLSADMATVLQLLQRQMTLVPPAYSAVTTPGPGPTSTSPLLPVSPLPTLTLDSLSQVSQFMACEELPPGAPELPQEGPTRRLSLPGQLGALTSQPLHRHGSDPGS
assay_protocol: hERG manual patch clamp assay
Assay type: cell-based
measurement_conditions: HEK 293 cells stably expressing hERG channel, pH 7.35, 10 μM compound
measurement_type: inhibition at 10 µM (%)
Report the figure in % without appending any unit label.

[
  {
    "molecule": "Cl.Cn1c(Nc2nc3ccccc3o2)nc2cc(C(=O)NCCN)ccc21 [Example 18, hydrochloride]",
    "tested_target": "hERG channel (Homo sapiens)",
    "measurement_type": "inhibition at 10 µM",
    "unit_abbrev": "%",
    "data_value": 12
  }
]

Lab note: need inhibition at 10 µM with hERG channel (Homo sapiens) for entry Cn1c(Nc2nc3ccc(N4CCCC4)cc3o2)nc2cc(C(=O)NCCOCCO)ccc21 , please look it up.
18

Entry Cn1c(Nc2nc3ccccc3o2)nc2cc(C(=O)NCCO)ccc21 please
35
